The values you see were collected from patent US7268128B2.

# Assayed System: PDE7 (type VII phosphodiesterase) (Homo sapiens, UniProt Q13946)
# Construct: endogenous in cells
# Sequence (Q13946 whole entry): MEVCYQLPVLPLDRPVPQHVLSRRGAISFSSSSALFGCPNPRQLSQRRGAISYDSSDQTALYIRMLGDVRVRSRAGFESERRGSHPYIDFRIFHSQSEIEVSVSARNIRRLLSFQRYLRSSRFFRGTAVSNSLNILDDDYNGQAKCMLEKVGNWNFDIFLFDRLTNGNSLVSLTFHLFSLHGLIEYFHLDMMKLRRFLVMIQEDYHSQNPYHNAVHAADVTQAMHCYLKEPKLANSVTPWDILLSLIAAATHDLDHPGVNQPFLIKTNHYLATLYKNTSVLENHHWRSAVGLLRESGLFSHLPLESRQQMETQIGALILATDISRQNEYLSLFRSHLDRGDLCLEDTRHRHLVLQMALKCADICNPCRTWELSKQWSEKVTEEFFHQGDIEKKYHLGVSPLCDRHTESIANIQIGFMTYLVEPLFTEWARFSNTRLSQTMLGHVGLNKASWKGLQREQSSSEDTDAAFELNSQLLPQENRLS
# Assay Overview: PDE7 inhibiting activity (3H-cAMP hydrolysis, active fraction from MOLT-4 cells)
# Condition Label: PDE7 fraction from MOLT-4 cells, 0.064 μM cAMP, 10 μM rolipram present, 2 hours at 25° C.; read-out: IC50 values for phosphodiesterase inhibiting activities (PDE7)
Quantity Name: IC50

Record excerpt, results attached:
COc1cc(N2CCC3(CC2)OCCO3)ccc1-c1nc2c(c(C3CCCCC3)nn2C)c(=O)[nH]1; ≤ 1000 nM
CNCCCN(C)S(=O)(=O)c1ccc(-c2nc3c(C)nn(C4CCCCC4)c3c(=O)[nH]2)c(OC)c1; ≤ 1000 nM
COc1cc(N(C)S(C)(=O)=O)ccc1-c1nc2c(c(C3CCCCC3)nn2C)c(=O)[nH]1; ≤ 1000 nM

Now consider a different molecule.
IC50 for CCOc1cc(N2CCC(NC)CC2)ccc1-c1nc2c(c(C3CCCCC3)nn2C)c(=O)[nH]1 [Example 90, monomethanesulfonate] ?
≤ 10 nM
